tested on: SW480; test: cell viability (CellTiter-Glo) relative to plate median (fraction of plate median); higher = more viable cells; settings: 5 µM; treatment time 24 h; reporter: 7TFP
cell viability vs 1: less than gives MET; not less than gives NOT MET.

Answered examples (5):
CC(=O)O[C@@H]1C[C@H]2C(C)(C)C(=O)C=C[C@]2(C)[C@H]2CC[C@@]3(C)[C@H](c4ccoc4)OC(=O)[C@H]4O[C@]43[C@@]21C : MET
CCN(CC)CCOc1ccc(C(=C(Cl)c2ccccc2)c2ccccc2)cc1 : MET
O=C(O)c1cccnc1 : NOT MET
CCC[C@@H]1C[C@@H](C(=O)N[C@@H]([C@H]2O[C@H](SC)[C@H](O)[C@@H](O)[C@H]2O)[C@@H](C)O)N(C)C1 : NOT MET
COc1ccc(-c2cc(=O)c3c(O)c(OC)c(O[C@@H]4O[C@H](CO[C@@H]5O[C@@H](C)[C@H](O)[C@@H](O)[C@H]5O)[C@@H](O)[C@H](O)[C@H]4O)cc3o2)cc1 : MET

### Prompt cell viability under 1? Item: CC1(C)Oc2ccc3ccc(=O)oc3c2CC1O (stereo not drawn)
### Response NOT MET

---

tested on: HCT116; experiment: cell viability (CellTiter-Glo) relative to plate median (fraction of plate median); higher = more viable cells; details: 5 µM; treatment time 24 h; reporter: TCF4/Wnt
cell viability vs 1: less than gives Criterion met; not less than gives Criterion not met.

Answered examples (2):
CCC(O)CC1CCC(C(C)C(=O)OC(C)CC2CCC(C(C)C(=O)O)O2)O1 (configuration not stated) [Bonactin] : Criterion met
COC(=O)C(O)c1ccccc1 (configuration not stated) : Criterion not met

### Prompt cell viability under 1? Item: CN1CCN(CC/C=C2/c3ccccc3Sc3ccc(S(=O)(=O)N(C)C)cc32)CC1
### Response Criterion not met

### Prompt cell viability under 1? Item: O=C(O)C1=C(CSc2nnnn2CS(=O)(=O)O)CS[C@@H]2[C@H](NC(=O)[C@H](O)c3ccccc3)C(=O)N12
### Response Criterion not met

### Prompt cell viability under 1? Item: COC1=C(O)C(=O)c2c(cc3oc(C(C)=O)c(O)c3c2O)C1=O
### Response Criterion not met

### Prompt cell viability under 1? Item: O=c1c(O)c(-c2ccccc2)oc2ccccc12
### Response Criterion met

### Prompt cell viability under 1? Item: Cc1cc(O)c(C=O)c2c1C(=O)Oc1c(C)c(O)c3c(c1O2)C(O)OC3=O (configuration not stated)
### Response Criterion not met

---

tested on: HCT116; experiment: cell viability (CellTiter-Glo) relative to plate median (fraction of plate median); higher = more viable cells; conditions: 5 µM; treatment time 24 h; reporter: TCF4/Wnt
OBSERVATION_TYPE: cell viability

Known results for compounds:
Nc1c2ccccc2nc2ccccc12 : 0.919
CC(C)CC(NC(=O)OCC1c2ccccc2-c2ccccc21)C(=O)O (stereo in doubt) : 0.996
CN1C(C)(C)CCCC1(C)C : 0.939
C[C@@H]1CC[C@H]2C(C)(C)[C@H]3C[C@@]12CC[C@@]3(C)O : 1.07
C[C@]12CC[C@H]3C(=CCc4cc(O)ccc43)[C@@H]1CCC2=O : 0.869
COc1ccc(-c2cc(=O)c3cc(OC)ccc3o2)cc1 : 0.964

Would you mind giving cell viability for every compound in the list below?
1. CCCCC1C(=O)N(c2ccccc2)N(c2ccc(O)cc2)C1=O (stereo not given)
2. O=C1c2cccc(O)c2C(=O)c2c(O)cccc21
3. C/C=C(\CO)C(=O)O[C@H]1[C@H](O)[C@@H](C(=O)OC)O[C@@H]2C[C@H]3O[C@@H](n4cnc5c(N)ncnc54)[C@H](OC)[C@H]3O[C@]21O
4. CC(CN1c2ccccc2Sc2ccccc21)N(C)C (stereo not given)

### Response
1. 0.873
2. 0.923
3. 0.843
4. 1.1

---

Exercise: state measured cell viability for each of the compounds provided.
tested on: SW480; test: cell viability (CellTiter-Glo) relative to plate median (fraction of plate median); higher = more viable cells; details: 10 µM; treatment time 24 h; reporter: 7TFP
Numbers only.

Known results for compounds:
CCS(=O)(=O)Nc1ccc2c(c1)/C(=C(/Nc1ccc(CN3CCCCC3)cc1)c1ccccc1)C(=O)N2 : 0.873
CN1CCN(c2nc(C3=C(c4c[nH]c5ccccc45)C(=O)NC3=O)c3ccccc3n2)CC1 : 0.914
COCCOc1ccc2c(c1)ncn2-c1ccc2cccc(N3CCC(N)CC3)c2n1 : 1.05
O=C1NC(=O)[C@@H](c2cn3c4c(cccc24)CCC3)[C@@H]1c1c[nH]c2ccccc12 [ARQ 197 (Tivantinib)] : 1.07
CCN(CC)CCCCNc1ncc2cc(-c3cc(OC)cc(OC)c3)c(NC(=O)NC(C)(C)C)nc2n1 : 1.1
CC(C)(C)c1cnc(CSc2cnc(NC(=O)C3CCNCC3)s2)o1 : 1.3
Cc1cccc(-c2[nH]c(C(C)(C)C)nc2-c2ccc3nccnc3c2)n1 : 0.853

Could you now look at the following compound, please?
### Prompt Using the record for C=CC(=O)Nc1cccc(Oc2nc(Nc3ccc(N4CCN(C)CC4)cc3OC)ncc2Cl)c1 , state its measured cell viability.
### Response 0.922

---

system: SW480; assay: cell viability (CellTiter-Glo) relative to plate median (fraction of plate median); higher = more viable cells; settings: 5 µM; treatment time 24 h; reporter: 7TFP
OBSERVATION_TYPE: cell viability
Numbers only.

Nc1nc(=O)c2[nH]c(=O)cnc2[nH]1 : 0.954
Nc1ccc(S(=O)(=O)O)cc1.Nc1ccc(S(=O)(=O)O)cc1.[Zn] : 1.1
Nc1nc2[nH]cnc2c(=S)[nH]1 : 0.828
O=c1c(-c2ccc(O)cc2)coc2cc(O)cc(O)c12 [Genistein (Biofocus)] : 1.08
COc1ccc2c(c1)OCC(Cc1ccc(OC)c(O)c1)C2=O (stereo not given) : 1.09

Would you mind giving cell viability for every molecule in the list below?
1. CC/C(=C(\c1ccccc1)c1ccc(OCCN(C)C)cc1)c1ccccc1
2. N#CN=C(NCCCCCCOc1ccc(Cl)cc1)Nc1ccncc1

### Response
1: 1.05; 2: 0.87

---

system: HCT116; assay: TCF/Wnt firefly luciferase reporter signal relative to plate median (fraction of plate median); higher = higher Wnt reporter signal; conditions: 10 µM; treatment time 24 h; reporter: TCF4/Wnt
OBSERVATION_TYPE: TCF/Wnt firefly luciferase reporter signal
One number for each entry.

Would you mind giving TCF/Wnt firefly luciferase reporter signal for every molecule in the list below?
1. O=c1sn(-c2cccc3ccccc23)c(=O)n1Cc1ccccc1
2. CC(C)(O)CC(=O)NCCn1ccc2ncnc(Nc3ccc(Oc4cccc(C(F)(F)F)c4)c(Cl)c3)c21
3. COc1cc2nccc(Oc3ccc(NC(=O)NC4CC4)c(Cl)c3)c2cc1C(N)=O
4. CNC(=O)c1ccc(-c2cnc3ncc(Cc4ccc5ncccc5c4)n3n2)cc1F

### Response
1. 1.28
2. 0.902
3. 1.31
4. 0.899

Would you mind giving TCF/Wnt firefly luciferase reporter signal for every molecule in the list below?
1. COc1ccc2c(OCc3nnc4ccc(-c5ccccc5)nn34)ccnc2c1
2. COc1ccc(S(=O)(=O)N(C(C)=O)c2ccccc2/C=C/c2cc[n+]([O-])cc2)cc1
3. COc1cc2c(Oc3ccc4[nH]c(C)cc4c3F)ncnc2cc1OCCCN1CCCC1
4. Cc1nc(NC(=O)N2CCC[C@H]2C(N)=O)sc1-c1ccnc(C(C)(C)C(F)(F)F)c1
5. O=C1NC(=O)C(=Cc2ccc(-c3ccc(F)cc3)o2)S1 (stereo in doubt)
6. FC(F)(F)c1ccc(/C=C/c2nc(COc3ccc(CCCCn4ccnn4)cc3)co2)cc1

### Response
1. 1.26
2. 0.278
3. 0.354
4. 0.985
5. 1.29
6. 0.639

Would you mind giving TCF/Wnt firefly luciferase reporter signal for every molecule in the list below?
1. CC(C)(C)c1nc(-c2cccc(NS(=O)(=O)c3c(F)cccc3F)c2F)c(-c2ccnc(N)n2)s1
2. Oc1cccc(-c2nc(N3CCOCC3)c3oc4ncccc4c3n2)c1
3. COc1ccc(-c2ccc3ncc4c(c3c2)n(-c2ccc(N3CCNCC3)c(C(F)(F)F)c2)c(=O)n4C)cn1
4. CC(C)c1cnn2c(NCc3ccccc3)cc(NCCCCCCN)nc12
5. COc1cc2ncnc(Nc3cccc(Cl)c3)c2cc1OC
6. CCCS(=O)(=O)Nc1ccc(F)c(C(=O)c2c[nH]c3ncc(Cl)cc23)c1F

### Response
[0.931, 0.869, 0.0387, 0.988, 1.01, 1.05]

---

Exercise: state measured TCF/Wnt firefly luciferase reporter signal for each of the compounds provided.
system: DLD1; experiment: TCF/Wnt firefly luciferase reporter signal relative to plate median (fraction of plate median); higher = higher Wnt reporter signal; conditions: 5 µM; treatment time 24 h; reporter: 7TFP

COc1ccc2cc([C@H](C)C(=O)O)ccc2c1 : 0.969
CCC(=O)C(CC)C(O)C(C)CC(C)C1OC(=O)CC2(O)CC=C(C)C(O2)/C(C)=C/CCCC(OC2CC(OC(N)=O)C(O)C(C)O2)/C=C\C(C)C(O)C1C (configuration not stated) : 0.87
CC12CCC3C(CC3(C)C)C(C)(CCC1=O)O2 (configuration not stated) : 0.883
CC(=O)O[C@]1(C(C)=O)CC[C@H]2[C@@H]3C=C(C)C4=CC(=O)CC[C@]4(C)[C@H]3CC[C@@]21C : 1.03
C=C1C2CC[C@@]3(C)[C@H](c4ccoc4)OC(=O)C[C@]13O[C@H]1CC(=O)C(C)(C)[C@H](C(O)C(=O)OC)[C@@]21C (some centres not stated) : 1.02

Would you mind giving TCF/Wnt firefly luciferase reporter signal for every compound in the list below?
1. NC[C@H]1O[C@H](O[C@H]2[C@H](O[C@@H]3O[C@H](CO)[C@@H](O)[C@H]3O)[C@@H](O)[C@H](N)C[C@@H]2N)[C@H](N)[C@@H](O)[C@@H]1O
2. O=C(O)c1cc(=O)c2ccccc2o1
3. C/C=C/CCC(=O)c1cc(C)c(O)cc1O [Sohirnone A]
4. Cc1cc(=O)c2c(O)cc(O)c(C)c2o1
5. COc1ccc2c(c1)OC1(O)COc3cc(OC)c(OC)cc3C1=C2 (configuration not stated)
6. COC(=O)[C@H]1[C@H]2C[C@@H]3c4[nH]c5cc(OC)ccc5c4CCN3C[C@H]2C[C@@H](OC(=O)c2cc(OC)c(OC)c(OC)c2)[C@@H]1OC
7. NC(N)=O
8. N[C@@H](C=O)[C@@H](O[C@@H]1O[C@H](C(=O)O)[C@@H](O)[C@H](O)[C@H]1O)[C@@H](O)[C@H](O)CO

### Response
1.04
0.909
1.02
1.25
0.985
0.974
0.898
0.939
